Overview of reported kon across a group of binders:
target: T1, recombinant human CD63 extracellular loop 2 expressed with a C-terminal human Fc tag (human); experiment: SPR Biacore, mAb captured, 37C
T1 construct: also called hCD63 EC loop 2-hFc; human CD63 EC loop 2-Fc
T1 sequence (chain, as listed by the source limits assumed): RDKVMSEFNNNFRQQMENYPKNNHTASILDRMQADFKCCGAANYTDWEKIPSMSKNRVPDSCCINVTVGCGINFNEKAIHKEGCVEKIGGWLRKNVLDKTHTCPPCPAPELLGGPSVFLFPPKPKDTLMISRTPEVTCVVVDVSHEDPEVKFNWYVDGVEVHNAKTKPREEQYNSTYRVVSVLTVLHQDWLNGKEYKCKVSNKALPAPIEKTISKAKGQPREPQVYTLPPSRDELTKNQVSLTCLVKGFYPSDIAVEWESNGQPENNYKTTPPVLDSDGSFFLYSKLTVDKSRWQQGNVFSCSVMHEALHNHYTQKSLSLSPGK
# unit: M⁻¹ s⁻¹ | format: bare number

| binder | kon, M⁻¹ s⁻¹ |
| --- | --- |
| H2M12452N (antibody, V domains shown, also called H2aM12452N) VH: QVQLQEAGPGLVKPSETLSLTCIVSGGSISGFYWNWIRQPPGKGLEWIGYFLYSGTIDYNPSLKSRVTISVDTSKNQFFLKLSFVTAADTAVYYCVRMGLGANAFDIWGRGTMVTVSS VL: EIVLTQSPGTLSLSPGERATLSCRASQTVSRSFLAWYQQKPGQAPRLLIYGPSSRATGIPDRFSGSGSGTDFTLTISRLEPEDFAVYYCQQYGNSPWTFGQGTKVEIK | 779000 |
| H2M12395N (antibody, V domains shown, also called H2aM12395N) VH: QVQLQESGPRLVKPSETLSLTCIVSGGSISNFYWNWIRQSPGKGLEWIGYFFYTGTIDYNPSLKSRVTISLDTSKNQFSLNLRLLTAADAAVYYCARMGLGANAFDIWGHGTMVTVSS VL: EIVLTQSPGTLSLSPGERATLSCRASQHVSSNYLAWYQQKPGQAPRLLIYGGSSRATGIPDRFSGSGSGTDFTLTISRLEPADFAVFYCQQYGNSPWTFGQGTKVEMK | 529000 |
| H2M13022N (antibody, V domains shown, also called H2bM13022N) VH: QVQLVESGGGLVQPGGSLRLSCAASGFIFGDYYINWIRQAPGKGLQWVSYTSSSGSTTYYEDSVKGRFTMSRDNAKNLVYLQMNSLRAEDTAAYYCVRDLRYNDGLDVWGQGTTVIVSS VL: DILLTQSPSSLSAFVGDRVTITCRASQNIRTYLNWYQQKPGRAPKLLVYAASTLQSGVPSRFSGSGSGTDFTLTISSLQPEDFASYFCQQSYDNPPITFGQGTRLAIK | 557000 |
| H2M12387N (antibody, V domains shown, also called H2aM12387N) VH: QVQLEESGGGVVKAGGSLRLSCAASGFTFSDYYMNWIRQAPGKGLEWVSYINNGGYTIYYADSVKGRFTMSRDNAKNSVYLQMNGLRAEDTAFYYCVRDPRSYYGFDYWGQGTLVIVSS VL: DIQMTQSPSSLSASVGDRVTITCRASQSISRFLHWYQQKPGKAPKLLIYGASSLQSGVPSRFSGSGSGTDFTLTISSLQPEDFATYYCQQSYSTPPITFGQGTRLEIK | 1.1e+06 |
| H2M12454N (antibody, V domains shown, also called H2bM12454N) VH: QVQLVESGGGLVKPGGSLRLSCAVSGFTYTDYFMNWIRQAPGKGLEWVSYISNSGAIKYYADSVKGRFTISRDNAKNSLYLQMNGLRADDTAVYYCVRDPRSYYGFDYWGQGTLVTVSS VL: DIQMTQSPSSLSASVGDRVTITCRASQSISNFLNWYQQKPGKAPRLLIYGASNLQSGVPSRFSGGGSGTDFTLTISSLQPADFATYYCQQSFSNPPVTFGQGTRLEIN | 868000 |

Bench note: what kon did H1M12386N (antibody, V domains shown) VH: QVQLEESGGGVVKAGGSLRLSCVASGFTFSDYYINWIRQAPGKGLEWVSYINNGGYTIYYADSVKGRFTMSRDNAKNSVYLEMNGLRAEDTAFYYCVRDPRSYYGFDYWGQGTLVTVSS VL: DIQMTQSPSSLSASVGDRVTITCRASQSISSYLNWNQQKPGKAPKLLIYVASSLQSGVPSRFSGSGSGTDFTLTISGLQPEDFAPYYCQQSYITPPITFGQGTRLDIK show?
921000
